system.name: CD3ε homodimer protein (human, UniProt P07766 23-126, limits assumed)
Sequence (P07766 23-126 limits assumed): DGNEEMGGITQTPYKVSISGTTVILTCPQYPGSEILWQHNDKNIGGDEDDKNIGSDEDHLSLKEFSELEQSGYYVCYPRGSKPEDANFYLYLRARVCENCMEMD
assay.explanation: SPR, immobilized CD3ε homodimer;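 note: biacore T200 surface plasmon resonance at 25 °C, antibody variants flowed as analytes over amine-coupled CD3ε homodimer on a CM4 chip, variant binding amount divided by that of GLS3000 antibody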
Recorded ratio of amounts bound (vs GLS3000) by entry
Just the number, please.

binder	ratio of amounts bound (vs GLS3000)
GLS3000 L33V (antibody, name in Kabat numbering, V domains shown, one-arm format as m2) VH: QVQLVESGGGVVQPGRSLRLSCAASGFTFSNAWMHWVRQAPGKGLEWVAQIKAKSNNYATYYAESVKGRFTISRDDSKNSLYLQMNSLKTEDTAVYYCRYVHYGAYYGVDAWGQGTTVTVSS VL: DIVMTQSPLSLPVTPGEPASISCRSSQSLVHSNRNTYVHWYQQKPGQAPRLLIYKVSNRFSGVPDRFSGSGSGTDFTLKISRVEAEDVGVYYCGQGTQVPYTFGQGTKLEIK	1.05

From here, focus on the item given below.
Which ratio of amounts bound (vs GLS3000) is listed for GLS3000 N28E (antibody, name in Kabat numbering, V domains shown, one-arm format as m2) VH: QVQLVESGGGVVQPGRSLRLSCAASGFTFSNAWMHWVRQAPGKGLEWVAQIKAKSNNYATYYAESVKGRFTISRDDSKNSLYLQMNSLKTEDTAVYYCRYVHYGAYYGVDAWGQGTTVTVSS VL: DIVMTQSPLSLPVTPGEPASISCRSSQSLVHSERNTYLHWYQQKPGQAPRLLIYKVSNRFSGVPDRFSGSGSGTDFTLKISRVEAEDVGVYYCGQGTQVPYTFGQGTKLEIK ?
0.4
